Listed here are molecules together with their documented IC50.
# measuredOn: human Nav1.7 (Homo sapiens (Human), UniProt Q15858)
# Sequence (Q15858 with tags, fused parts or gaps limits assumed): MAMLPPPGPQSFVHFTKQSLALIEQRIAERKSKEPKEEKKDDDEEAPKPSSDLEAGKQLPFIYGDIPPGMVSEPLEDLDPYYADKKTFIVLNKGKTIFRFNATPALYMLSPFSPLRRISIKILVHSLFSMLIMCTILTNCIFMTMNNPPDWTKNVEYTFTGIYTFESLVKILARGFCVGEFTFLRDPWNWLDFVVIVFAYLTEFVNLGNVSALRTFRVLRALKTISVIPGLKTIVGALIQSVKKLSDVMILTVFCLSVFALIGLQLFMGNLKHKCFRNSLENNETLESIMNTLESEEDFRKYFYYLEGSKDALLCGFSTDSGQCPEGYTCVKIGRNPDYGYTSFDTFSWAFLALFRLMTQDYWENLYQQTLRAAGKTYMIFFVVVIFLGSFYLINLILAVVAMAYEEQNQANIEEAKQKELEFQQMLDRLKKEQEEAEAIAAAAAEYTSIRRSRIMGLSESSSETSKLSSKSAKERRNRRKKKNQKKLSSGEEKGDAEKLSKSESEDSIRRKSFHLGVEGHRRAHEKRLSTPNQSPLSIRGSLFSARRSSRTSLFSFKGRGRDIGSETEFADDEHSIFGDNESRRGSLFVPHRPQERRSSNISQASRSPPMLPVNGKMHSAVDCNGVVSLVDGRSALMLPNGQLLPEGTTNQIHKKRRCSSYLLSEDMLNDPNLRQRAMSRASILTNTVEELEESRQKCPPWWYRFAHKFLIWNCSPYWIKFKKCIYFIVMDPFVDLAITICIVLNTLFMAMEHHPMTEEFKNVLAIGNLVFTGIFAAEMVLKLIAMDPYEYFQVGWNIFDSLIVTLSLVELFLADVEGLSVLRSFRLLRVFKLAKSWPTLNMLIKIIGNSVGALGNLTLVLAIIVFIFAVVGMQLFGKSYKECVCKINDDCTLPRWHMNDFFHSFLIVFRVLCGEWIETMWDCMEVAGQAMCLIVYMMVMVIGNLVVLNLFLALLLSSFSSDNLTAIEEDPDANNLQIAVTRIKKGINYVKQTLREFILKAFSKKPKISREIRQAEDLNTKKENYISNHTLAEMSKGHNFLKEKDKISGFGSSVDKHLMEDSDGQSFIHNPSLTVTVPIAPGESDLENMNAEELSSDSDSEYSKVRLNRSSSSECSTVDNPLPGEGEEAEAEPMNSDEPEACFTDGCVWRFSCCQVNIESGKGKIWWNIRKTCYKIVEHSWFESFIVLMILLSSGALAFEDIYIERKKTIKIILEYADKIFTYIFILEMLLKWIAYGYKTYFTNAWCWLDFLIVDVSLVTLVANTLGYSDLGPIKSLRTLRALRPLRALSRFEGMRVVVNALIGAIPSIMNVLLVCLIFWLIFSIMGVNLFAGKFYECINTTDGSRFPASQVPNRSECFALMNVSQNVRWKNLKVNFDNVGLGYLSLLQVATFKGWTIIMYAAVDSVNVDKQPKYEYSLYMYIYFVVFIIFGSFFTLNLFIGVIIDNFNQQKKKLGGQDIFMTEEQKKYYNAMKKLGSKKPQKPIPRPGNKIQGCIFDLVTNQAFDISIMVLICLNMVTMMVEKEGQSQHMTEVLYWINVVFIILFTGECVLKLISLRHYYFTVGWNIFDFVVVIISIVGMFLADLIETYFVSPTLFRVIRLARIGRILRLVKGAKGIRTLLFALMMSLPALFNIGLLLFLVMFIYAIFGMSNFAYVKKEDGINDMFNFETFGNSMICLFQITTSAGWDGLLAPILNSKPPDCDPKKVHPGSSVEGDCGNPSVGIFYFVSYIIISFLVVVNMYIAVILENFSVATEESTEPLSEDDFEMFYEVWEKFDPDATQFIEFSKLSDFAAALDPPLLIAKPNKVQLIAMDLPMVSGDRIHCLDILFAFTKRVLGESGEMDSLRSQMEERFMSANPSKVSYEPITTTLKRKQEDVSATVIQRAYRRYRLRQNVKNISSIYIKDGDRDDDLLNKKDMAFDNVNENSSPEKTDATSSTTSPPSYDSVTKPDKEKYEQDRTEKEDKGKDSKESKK
# testMethodNotes: FLIPR or FLIPR TETRA sodium dye assay with KCl and test article pre-incubation
# Format: cell-based
# measurementContext: recombinant HEK293 cells expressing human Nav1.7 alpha subunit; CoroNa Green sodium dye; veratridine and scorpion venom as agonists; read-out: Nav1.7 Activity (μM) FLIPR assay IC50 (μM) ± SEM
measurementType: IC50 (µM)

# molecule, measuredOn, measurementType, reportedRelation, number
measured = [
    ("COc1ncccc1-c1ccccc1Cc1cccc(-c2ccc(OCC(F)(F)F)nc2)n1 [Compound 11]", "human Nav1.7 (Homo sapiens (Human), UniProt Q15858)", "IC50", ">", 20),
    ("CN(C)c1ncc(-c2ccccc2Cc2cccc(-c3ccc(OCC(F)(F)F)nc3)n2)cn1 [Compound 15]", "human Nav1.7 (Homo sapiens (Human), UniProt Q15858)", "IC50", "=", 0.34),
    ("Oc1ccccc1Cc1cccc(-c2ccc(OCC(F)(F)F)nc2)n1 [Compound 8]", "human Nav1.7 (Homo sapiens (Human), UniProt Q15858)", "IC50", ">", 20),
    ("Fc1ccc(-c2ccccc2Cc2cccc(-c3ccc(OCC(F)(F)F)nc3)n2)cn1 [Compound 12]", "human Nav1.7 (Homo sapiens (Human), UniProt Q15858)", "IC50", ">", 20),
    ("CSc1ncc(-c2ccccc2Cc2cccc(-c3ccc(OCC(F)(F)F)nc3)n2)cn1 [Compound 14]", "human Nav1.7 (Homo sapiens (Human), UniProt Q15858)", "IC50", "=", 0.947),
]
